test: Clearance in Sprague-Dawley rat at 2.3 umol/kg, iv; type: ADME, organism-based; details: in vivo
MEASURED PROPERTY: clearance (mL/min/kg)

* C[C@H](NC(=O)[C@@H](O)c1cc(F)cc(F)c1)C(=O)N[C@@H]1C(=O)N(C)N=Cc2ccccc21 | 5.2

* * *

experiment: Drug level in Tg2576 mouse plasma at 30 umol/kg, po after 3 hrs; assay type: ADME, organism-based; conditions: read-out: Drug uptake
MEASURED PROPERTY: concentration at 3 h (nM)

• C[C@H](NC(=O)[C@@H](O)c1cc(F)cc(F)c1)C(=O)N[C@@H]1C(=O)N(C)N=Cc2ccccc21 = 1960
• C[C@H](NC(=O)C(=O)c1cc(F)cc(F)c1)C(=O)NC1C(=O)N(C)N=Cc2ccccc21 (stereo partly specified) = 2090
• C[C@H](NC(=O)[C@@H](O)c1cc(F)cc(F)c1)C(=O)N[C@H]1C(=O)N(C)N=Cc2ccccc21 = 546
• C[C@H](NC(=O)Cc1cc(F)cc(F)c1)C(=O)NC1C(=O)N(C)NCc2ccccc21 (stereo partly specified) = 205
• C[C@H](NC(=O)Cc1cc(F)cc(F)c1)C(=O)NC1C(=O)N(C)N=Cc2ccccc21 (stereo partly specified) = 199
• C[C@H](NC(=O)[C@H](O)c1cc(F)cc(F)c1)C(=O)N[C@@H]1C(=O)N(C)N=Cc2ccccc21 = 2750

* * *

Collected concentration at 3 h values appear next to each entry.
test: Drug level in Tg2576 mouse brain at 30 umol/kg, po after 3 hrs; assay type: ADME, organism-based; conditions: read-out: Drug uptake
MEASURED PROPERTY: concentration at 3 h (nM)

* C[C@H](NC(=O)Cc1cc(F)cc(F)c1)C(=O)NC1C(=O)N(C)NCc2ccccc21 (stereo partly specified) | 6
* C[C@H](NC(=O)[C@H](O)c1cc(F)cc(F)c1)C(=O)N[C@@H]1C(=O)N(C)N=Cc2ccccc21 | 202
* C[C@H](NC(=O)[C@@H](O)c1cc(F)cc(F)c1)C(=O)N[C@H]1C(=O)N(C)N=Cc2ccccc21 | 72
* C[C@H](NC(=O)C(=O)c1cc(F)cc(F)c1)C(=O)NC1C(=O)N(C)N=Cc2ccccc21 (stereo partly specified) | 280
* C[C@H](NC(=O)Cc1cc(F)cc(F)c1)C(=O)NC1C(=O)N(C)N=Cc2ccccc21 (stereo partly specified) | 12
* C[C@H](NC(=O)[C@@H](O)c1cc(F)cc(F)c1)C(=O)N[C@@H]1C(=O)N(C)N=Cc2ccccc21 | 133

* * *

tested on: Mus musculus; experiment: Inhibition of beta amyloid peptide in Tg2576 mouse plasma at 30 umol/kg, po after 3 hrs; assay type: functional
inhibition in vivo at 30 µmol/kg below 90% gives false; inhibition in vivo at 30 µmol/kg at or above it gives true.

* C[C@H](NC(=O)[C@H](O)c1cc(F)cc(F)c1)C(=O)N[C@@H]1C(=O)N(C)N=Cc2ccccc21 | false
* C[C@H](NC(=O)Cc1cc(F)cc(F)c1)C(=O)NC1C(=O)N(C)NCc2ccccc21 (stereo not given in full) | false
* C[C@H](NC(=O)Cc1cc(F)cc(F)c1)C(=O)NC1C(=O)N(C)N=Cc2ccccc21 (stereo not given in full) | false
* C[C@H](NC(=O)C(=O)c1cc(F)cc(F)c1)C(=O)NC1C(=O)N(C)N=Cc2ccccc21 (stereo not given in full) | true

* * *

biological target: Gamma-secretase; experiment: Inhibition of gamma secretase assessed as reduction of amyloid beta level in H4 cells
pIC50: −log10 of the molar value.
pIC50 below 8 gives f; pIC50 at or above it gives t.

* CC(C)C[C@H](NC(=O)[C@H](O)c1ccccc1)C(=O)NC1C(=O)N(C)N=Cc2ccccc21 (stereo partly specified) | f
* CC(C)C[C@H](NC(=O)Cc1cccc(F)c1)C(=O)NC1C(=O)N(C)N=Cc2ccccc21 (stereo partly specified) | t
* C[C@H](NC(=O)Cc1cccs1)C(=O)NC1C(=O)N(C)N=Cc2ccccc21 (stereo partly specified) | t
* C[C@H](NC(=O)C(=O)c1cc(F)cc(F)c1)C(=O)NC1C(=O)N(C)N=Cc2ccccc21 (stereo partly specified) | t
* CC(C)N1N=Cc2ccccc2C(NC(=O)[C@H](C)NC(=O)Cc2cc(F)cc(F)c2)C1=O (stereo partly specified) | t
* CC1=NN(C)C(=O)C(NC(=O)[C@H](C)NC(=O)Cc2ccoc2)c2ccccc21 (stereo partly specified) | t
* C[C@H](NC(=O)[C@@H](O)c1cc(F)cc(F)c1)C(=O)N[C@@H]1C(=O)N(C)N=Cc2ccccc21 | t
* C[C@H](NC(=O)Cc1cccnc1)C(=O)NC1C(=O)N(C)N=Cc2ccccc21 (stereo partly specified) | f

* * *

molecular target: Gamma-secretase; experiment: Inhibition of gamma secretase assessed as reduction of amyloid beta level in H4 cells
Collected IC50 values appear next to each entry.
MEASURED PROPERTY: IC50 (nM)

- C[C@H](NC(=O)[C@H](O)c1cc(F)cc(F)c1)C(=O)N[C@@H]1C(=O)N(C)N=Cc2ccccc21: 10
- CC(C)C[C@H](NC(=O)Cc1ccc(F)cc1)C(=O)NC1C(=O)N(C)N=Cc2ccccc21 (stereo partly drawn): 14
- C[C@H](NC(=O)Cc1cc(F)cc(F)c1)C(=O)NC1C(=O)N(C)NCc2ccccc21 (stereo partly drawn): 9
